src = PubChem BioAssay (NCI)

System: HT29 colon
Assay: NCI tumour cell line growth inhibition, 48 h
readout: GI50

Ask | Checklist item: GI50 tested on HT29 colon, entry Cc1cc(N2CCN(C)CC2)nc(N(CCNc2ccnc3cc(Cl)ccc23)Cc2ccco2)n1 , value?
Reply | 2.47 µM

Ask | Checklist item: GI50 tested on HT29 colon, entry CC(=O)Nc1cc(C(c2ccccc2)c2ccccc2)cc(C(c2ccccc2)c2ccccc2)c1C , value?
Reply | 8.26 µM

Ask | Checklist item: GI50 tested on HT29 colon, entry CCCCCCCCCCCCNC(=O)[C@H]1CSC(c2cc(Br)cs2)N1 (stereo not given in full) , value?
Reply | 1.59 µM

Ask | Checklist item: GI50 tested on HT29 colon, entry O=C1c2cccc3cccc(c23)C(=O)N1CC#Cc1ccc2c3c(cccc13)C(=O)N(CCN1CCNCC1)C2=O , value?
Reply | 2 µM

Ask | Checklist item: GI50 tested on HT29 colon, entry C/C(=C\CCc1ccsc1)CC/C=C(\C)CCCN1CCN(CCO)CC1 , value?
Reply | 2.04 µM

###

System: OVCAR-5 ovarian
Assay: NCI tumour cell line growth inhibition, 48 h
*1 amine or outer side, *2 acyl side, *3 side chain or, on linkers, in order; H or OH if unused. Where a SMILES comes first, the peptide text is derived from it. Bridges are numbered along the chain shown (N, C = ends). Roman numbers before positions name the chains, in order. X23 = CCCCCCCCCCCCCCC(=O)NC(CCCCN[*:2])C(=O)CN1CCCC1C(=O)[*:1]
Exercise: for every item that follows, state its recorded GI50.

Ask | What does the data say about its GI50? Entry: NC(Cc1ccc(O)cc1)C(=O)N/N=C/c1ccc(N(CCCl)CCCl)cc1 (configuration not stated)
Reply | 27.4 µM

Ask | What does the data say about its GI50? Entry: Cc1cc(N2CCN(C)CC2)nc(N(CCNc2ccnc3cc(Cl)ccc23)Cc2ccco2)n1
Reply | 5.89 µM

Ask | What does the data say about its GI50? Entry: Cc1ccc2c(n1)C(=O)C(Cl)=C(Nc1ccc(N3CCN(C)CC3)cc1)C2=O
Reply | 1.82 µM

Ask | What does the data say about its GI50? Entry: C=C1C(=O)O[C@H]2[C@H]1CC/C(COC(=O)c1cccc3ccccc13)=C\CC[C@@]1(C)O[C@@H]21
Reply | 2.27 µM

Ask | What does the data say about its GI50? Entry: CCCCCCCCCCCCCCC(=O)NC(CCCCNC(=O)C1CCCN1C(=O)C(CCCCN)NC(=O)C(CCCCN)NC(=O)C(CCCCN)NC(=O)C(CCCNC(=N)N)NC(=O)C(CCCCN)NC(=O)C(N)C(C)C)C(=O)CN1CCCC1C(=O)NCC(=O)NC(Cc1ccccc1)C(=O)N1CCCC1C(=O)NC(CO)C(=O)NC(Cc1ccc(O)cc1)C(=O)NC(CCCCN)C(=O)NC(CC(C)C)C(=O)NC(CCCNC(=N)N)C(=O)N1CCCC1C(=O)NCC(N)=O (configuration not stated) (I: GFPSYKLRPG-NH2 / II: H-VKRKKKP; linker I:N-II:C via X23; configuration not given here)
Reply | 29.7 µM

Ask | What does the data say about its GI50? Entry: O=C(N/N=C/c1ccncc1)c1ccc(C(F)(F)F)nc1Nc1cccc(C(F)(F)F)c1
Reply | 2.83 µM

Ask | What does the data say about its GI50? Entry: CC(=O)Nc1c(I)c(C(=O)O)c(I)c(N(C)C(C)=O)c1I
Reply | > 100 µM

Ask | What does the data say about its GI50? Entry: C[C@@H](Oc1cc(-c2cnn(C3CC4(CNC4)C3)c2)cnc1N)c1c(Cl)ccc(F)c1Cl
Reply | 1.82 µM

Ask | What does the data say about its GI50? Entry: C/C(=C\CCc1ccsc1)CC/C=C(\C)CCCN1CCN(CCO)CC1
Reply | 4.04 µM

Ask | What does the data say about its GI50? Entry: N#Cc1ccc(N2Cc3cc(Cl)ccc3OC3=C2C(=O)N(Cc2ccc(F)cc2)C3=O)cc1
Reply | 0.737 µM

Ask | What does the data say about its GI50? Entry: COc1ccc(Oc2nc(Nc3ccc(N4CCOCC4)cc3)ncc2NC(=O)Nc2cc(OC)cc(OC)c2)cc1
Reply | 11.6 µM

Ask | What does the data say about its GI50? Entry: Cc1cc(Br)c2nsnc2c1[N+](=O)[O-]
Reply | 4.55 µM

###

System: HL-60(TB) leukemia
Assay: NCI tumour cell line growth inhibition, 48 h
readout: GI50

Ask | What does the data say about its GI50? Entry: CCc1ccc(Oc2nccc(-c3c(-c4ccc(F)cc4)ncn3C3CCNCC3)n2)cc1
Reply | 5.78 µM

Ask | What does the data say about its GI50? Entry: c1cc2ccc3cc2cc1CNCCOCCNCc1ccc2ccc(cc2c1)CNCCOCCNC3
Reply | > 100 µM

Ask | What does the data say about its GI50? Entry: Cc1ccc2c(n1)C(=O)C(Cl)=C(Nc1ccc(N3CCN(C)CC3)cc1)C2=O
Reply | 2.22 µM

Ask | What does the data say about its GI50? Entry: CS(=O)/C(C#N)=C\C=C\c1cccc(Cl)c1 (configuration not stated)
Reply | 2.38 µM

Ask | What does the data say about its GI50? Entry: [CH3][Sn]([CH3])([CH3])[O]C(=O)C(O)c1ccccc1 (configuration not stated)
Reply | 4.75 µM

Ask | What does the data say about its GI50? Entry: Nc1cccc2c1CN(C1CCC(=O)NC1=O)C2=O (configuration not stated)
Reply | > 100 µM

Ask | What does the data say about its GI50? Entry: Cc1ccc(NC(C(=O)c2ccccc2)c2ccccc2)cc1 (configuration not stated)
Reply | 2.59 µM

###

Test system: SNB-75 CNS
Experiment: NCI tumour cell line growth inhibition, 48 h
Exercise: for every item that follows, state its recorded TGI.
Answer format: numeric, µM implied, no suffix.

Ask | What does the data say about its TGI? Entry: Oc1[nH]c2ccc(Cl)cc2c1/C=c1/ccc2c(c1)N=C(c1ccc(C(F)(F)F)cc1)N=2
Reply | 7.51

Ask | What does the data say about its TGI? Entry: C=CC(Br)(CBr)CCC(Br)C(C)(C)Br (stereo unspecified)
Reply | 22.3

Ask | What does the data say about its TGI? Entry: Cc1ccc2nc3sc(=O)sc3nc2c1
Reply | 64.8

Ask | What does the data say about its TGI? Entry: Cc1cc(NS(=O)(=O)c2ccc(NC(=O)COc3ccc(-c4cc5ccccc5[nH]4)cc3)cc2)no1
Reply | 4.68

Ask | What does the data say about its TGI? Entry: Cc1ccc(NC(C(=O)c2ccccc2)c2ccccc2)cc1 (stereo unspecified)
Reply | 20.3

Ask | What does the data say about its TGI? Entry: Cc1ccc(O)c(-c2cc(-c3ccccc3)nc(/N=C\c3ccccc3)n2)c1
Reply | 40.9

Ask | What does the data say about its TGI? Entry: C=C(CS(=O)(=O)c1ccccc1)C(=O)OCC
Reply | 32

###

Tested on: M19-MEL melanoma
Assay: NCI tumour cell line growth inhibition, 48 h
readout: TGI

Ask | What does the data say about its TGI? Entry: OC1=CN=C(C2CC2)Oc2ccccc21
Reply | > 100 µM

Ask | What does the data say about its TGI? Entry: O=c1c2cc(Br)ccc2[nH]c(=S)n1-c1ccccc1
Reply | > 100 µM

Ask | What does the data say about its TGI? Entry: CC1=C(C(=O)Nc2cccc(C(F)(F)F)c2)C(c2ccccc2F)C(C(=O)Nc2cccc(C(F)(F)F)c2)=C(C)N1
Reply | 21.3 µM

Ask | What does the data say about its TGI? Entry: COC[C@@H]1Cc2cc(OC)c3c(c2[C@H](c2ccc(OC)c(OC)c2)[C@H]1COC)OCO3
Reply | > 100 µM

Ask | What does the data say about its TGI? Entry: Cc1ccc(NC(=O)CC(=O)n2nc(-c3ccccc3)c(N=Nc3ccccc3C(=O)O)c2-c2ccccc2)cc1
Reply | > 100 µM

###

Exercise: for every item that follows, state its recorded TGI.
Tested on: OVCAR-8 ovarian
Test: NCI tumour cell line growth inhibition, 48 h
*1 amine or outer side, *2 acyl side, *3 side chain or, on linkers, in order; H or OH if unused. Where a SMILES comes first, the peptide text is derived from it. Bridges are numbered along the chain shown (N, C = ends). Roman numbers before positions name the chains, in order. X23 = CCCCCCCCCCCCCCC(=O)NC(CCCCN[*:2])C(=O)CN1CCCC1C(=O)[*:1]

Ask | What does the data say about its TGI? Entry: O=C(NC1CCNCC1)c1[nH]ncc1NC(=O)c1c(Cl)cccc1Cl
Reply | > 100 µM

Ask | What does the data say about its TGI? Entry: O=C1CC(NC2CC(=O)c3c(Br)sc(Br)c32)c2c(Br)sc(Br)c21 (configuration not stated)
Reply | 10.3 µM

Ask | What does the data say about its TGI? Entry: Cc1nn2c(=O)n(-c3cccc(-n4nnc5c(-c6ccccc6)c(C)nn5c4=O)c3C)nnc2c1-c1ccccc1
Reply | > 100 µM

Ask | What does the data say about its TGI? Entry: Nc1cccc2c1CN(C1CCC(=O)NC1=O)C2=O (configuration not stated)
Reply | > 100 µM

Ask | What does the data say about its TGI? Entry: OC1=CN=C(C2CC2)Oc2ccccc21
Reply | > 100 µM

Ask | What does the data say about its TGI? Entry: O=C(Nc1sccc1S(=O)(=O)c1ccc(Cl)cc1)c1ccc(Cl)cc1Cl
Reply | > 100 µM

Ask | What does the data say about its TGI? Entry: S=C1NCCN1C(=S)NC1CCCCC1
Reply | > 100 µM

Ask | What does the data say about its TGI? Entry: Cc1ccc2c(n1)C(=O)C(Cl)=C(Nc1ccc(N3CCN(C)CC3)cc1)C2=O
Reply | 3.4 µM

Ask | What does the data say about its TGI? Entry: O=S(=O)(c1ccccc1)n1cnc(CCc2ccccc2)n1
Reply | > 100 µM

Ask | What does the data say about its TGI? Entry: COc1ccccc1/C=C1\N=C(C)OC1=O
Reply | > 100 µM

Ask | What does the data say about its TGI? Entry: O=C(Cc1nc2ccc(C(=O)c3ccccc3)cc2[nH]c1=O)C(=O)Nc1ccc(C(F)(F)F)cc1[N+](=O)[O-]
Reply | > 100 µM

Ask | What does the data say about its TGI? Entry: O=C(N/N=C/c1ccncc1)c1ccc(C(F)(F)F)nc1Nc1cccc(C(F)(F)F)c1
Reply | 10.4 µM

Ask | What does the data say about its TGI? Entry: CC(C)(C)OC(=O)N(CCCCNC(=O)c1ccccc1)CCCNC(=O)c1ccccc1
Reply | > 100 µM

Ask | What does the data say about its TGI? Entry: c1csc(-c2sc(-c3ccsc3)cc2Cc2ccsc2)c1
Reply | > 10 µM

Ask | What does the data say about its TGI? Entry: CCOC(=O)C1=C(C)NC(C)=C(C(=O)OCC)C1c1cc(Br)c(O)c(OC)c1
Reply | 38.9 µM

Ask | What does the data say about its TGI? Entry: Cc1ccccc1C(=O)NC(O)(C(F)(F)F)C(F)(F)F
Reply | > 100 µM

Ask | What does the data say about its TGI? Entry: CCCCCCCCCCCCCCC(=O)NC(CCCCNC(=O)C1CCCN1C(=O)C(CCCCN)NC(=O)C(CCCCN)NC(=O)C(CCCCN)NC(=O)C(CCCNC(=N)N)NC(=O)C(CCCCN)NC(=O)C(N)C(C)C)C(=O)CN1CCCC1C(=O)NCC(=O)NC(Cc1ccccc1)C(=O)N1CCCC1C(=O)NC(CO)C(=O)NC(Cc1ccc(O)cc1)C(=O)NC(CCCCN)C(=O)NC(CC(C)C)C(=O)NC(CCCNC(=N)N)C(=O)N1CCCC1C(=O)NCC(N)=O (configuration not stated) (I: GFPSYKLRPG-NH2 / II: H-VKRKKKP; linker I:N-II:C via X23; configuration not given here)
Reply | 85.8 µM
